measurementTarget: DNA-dependent protein kinase catalytic subunit (Homo sapiens)
Sequence (P78527 whole entry): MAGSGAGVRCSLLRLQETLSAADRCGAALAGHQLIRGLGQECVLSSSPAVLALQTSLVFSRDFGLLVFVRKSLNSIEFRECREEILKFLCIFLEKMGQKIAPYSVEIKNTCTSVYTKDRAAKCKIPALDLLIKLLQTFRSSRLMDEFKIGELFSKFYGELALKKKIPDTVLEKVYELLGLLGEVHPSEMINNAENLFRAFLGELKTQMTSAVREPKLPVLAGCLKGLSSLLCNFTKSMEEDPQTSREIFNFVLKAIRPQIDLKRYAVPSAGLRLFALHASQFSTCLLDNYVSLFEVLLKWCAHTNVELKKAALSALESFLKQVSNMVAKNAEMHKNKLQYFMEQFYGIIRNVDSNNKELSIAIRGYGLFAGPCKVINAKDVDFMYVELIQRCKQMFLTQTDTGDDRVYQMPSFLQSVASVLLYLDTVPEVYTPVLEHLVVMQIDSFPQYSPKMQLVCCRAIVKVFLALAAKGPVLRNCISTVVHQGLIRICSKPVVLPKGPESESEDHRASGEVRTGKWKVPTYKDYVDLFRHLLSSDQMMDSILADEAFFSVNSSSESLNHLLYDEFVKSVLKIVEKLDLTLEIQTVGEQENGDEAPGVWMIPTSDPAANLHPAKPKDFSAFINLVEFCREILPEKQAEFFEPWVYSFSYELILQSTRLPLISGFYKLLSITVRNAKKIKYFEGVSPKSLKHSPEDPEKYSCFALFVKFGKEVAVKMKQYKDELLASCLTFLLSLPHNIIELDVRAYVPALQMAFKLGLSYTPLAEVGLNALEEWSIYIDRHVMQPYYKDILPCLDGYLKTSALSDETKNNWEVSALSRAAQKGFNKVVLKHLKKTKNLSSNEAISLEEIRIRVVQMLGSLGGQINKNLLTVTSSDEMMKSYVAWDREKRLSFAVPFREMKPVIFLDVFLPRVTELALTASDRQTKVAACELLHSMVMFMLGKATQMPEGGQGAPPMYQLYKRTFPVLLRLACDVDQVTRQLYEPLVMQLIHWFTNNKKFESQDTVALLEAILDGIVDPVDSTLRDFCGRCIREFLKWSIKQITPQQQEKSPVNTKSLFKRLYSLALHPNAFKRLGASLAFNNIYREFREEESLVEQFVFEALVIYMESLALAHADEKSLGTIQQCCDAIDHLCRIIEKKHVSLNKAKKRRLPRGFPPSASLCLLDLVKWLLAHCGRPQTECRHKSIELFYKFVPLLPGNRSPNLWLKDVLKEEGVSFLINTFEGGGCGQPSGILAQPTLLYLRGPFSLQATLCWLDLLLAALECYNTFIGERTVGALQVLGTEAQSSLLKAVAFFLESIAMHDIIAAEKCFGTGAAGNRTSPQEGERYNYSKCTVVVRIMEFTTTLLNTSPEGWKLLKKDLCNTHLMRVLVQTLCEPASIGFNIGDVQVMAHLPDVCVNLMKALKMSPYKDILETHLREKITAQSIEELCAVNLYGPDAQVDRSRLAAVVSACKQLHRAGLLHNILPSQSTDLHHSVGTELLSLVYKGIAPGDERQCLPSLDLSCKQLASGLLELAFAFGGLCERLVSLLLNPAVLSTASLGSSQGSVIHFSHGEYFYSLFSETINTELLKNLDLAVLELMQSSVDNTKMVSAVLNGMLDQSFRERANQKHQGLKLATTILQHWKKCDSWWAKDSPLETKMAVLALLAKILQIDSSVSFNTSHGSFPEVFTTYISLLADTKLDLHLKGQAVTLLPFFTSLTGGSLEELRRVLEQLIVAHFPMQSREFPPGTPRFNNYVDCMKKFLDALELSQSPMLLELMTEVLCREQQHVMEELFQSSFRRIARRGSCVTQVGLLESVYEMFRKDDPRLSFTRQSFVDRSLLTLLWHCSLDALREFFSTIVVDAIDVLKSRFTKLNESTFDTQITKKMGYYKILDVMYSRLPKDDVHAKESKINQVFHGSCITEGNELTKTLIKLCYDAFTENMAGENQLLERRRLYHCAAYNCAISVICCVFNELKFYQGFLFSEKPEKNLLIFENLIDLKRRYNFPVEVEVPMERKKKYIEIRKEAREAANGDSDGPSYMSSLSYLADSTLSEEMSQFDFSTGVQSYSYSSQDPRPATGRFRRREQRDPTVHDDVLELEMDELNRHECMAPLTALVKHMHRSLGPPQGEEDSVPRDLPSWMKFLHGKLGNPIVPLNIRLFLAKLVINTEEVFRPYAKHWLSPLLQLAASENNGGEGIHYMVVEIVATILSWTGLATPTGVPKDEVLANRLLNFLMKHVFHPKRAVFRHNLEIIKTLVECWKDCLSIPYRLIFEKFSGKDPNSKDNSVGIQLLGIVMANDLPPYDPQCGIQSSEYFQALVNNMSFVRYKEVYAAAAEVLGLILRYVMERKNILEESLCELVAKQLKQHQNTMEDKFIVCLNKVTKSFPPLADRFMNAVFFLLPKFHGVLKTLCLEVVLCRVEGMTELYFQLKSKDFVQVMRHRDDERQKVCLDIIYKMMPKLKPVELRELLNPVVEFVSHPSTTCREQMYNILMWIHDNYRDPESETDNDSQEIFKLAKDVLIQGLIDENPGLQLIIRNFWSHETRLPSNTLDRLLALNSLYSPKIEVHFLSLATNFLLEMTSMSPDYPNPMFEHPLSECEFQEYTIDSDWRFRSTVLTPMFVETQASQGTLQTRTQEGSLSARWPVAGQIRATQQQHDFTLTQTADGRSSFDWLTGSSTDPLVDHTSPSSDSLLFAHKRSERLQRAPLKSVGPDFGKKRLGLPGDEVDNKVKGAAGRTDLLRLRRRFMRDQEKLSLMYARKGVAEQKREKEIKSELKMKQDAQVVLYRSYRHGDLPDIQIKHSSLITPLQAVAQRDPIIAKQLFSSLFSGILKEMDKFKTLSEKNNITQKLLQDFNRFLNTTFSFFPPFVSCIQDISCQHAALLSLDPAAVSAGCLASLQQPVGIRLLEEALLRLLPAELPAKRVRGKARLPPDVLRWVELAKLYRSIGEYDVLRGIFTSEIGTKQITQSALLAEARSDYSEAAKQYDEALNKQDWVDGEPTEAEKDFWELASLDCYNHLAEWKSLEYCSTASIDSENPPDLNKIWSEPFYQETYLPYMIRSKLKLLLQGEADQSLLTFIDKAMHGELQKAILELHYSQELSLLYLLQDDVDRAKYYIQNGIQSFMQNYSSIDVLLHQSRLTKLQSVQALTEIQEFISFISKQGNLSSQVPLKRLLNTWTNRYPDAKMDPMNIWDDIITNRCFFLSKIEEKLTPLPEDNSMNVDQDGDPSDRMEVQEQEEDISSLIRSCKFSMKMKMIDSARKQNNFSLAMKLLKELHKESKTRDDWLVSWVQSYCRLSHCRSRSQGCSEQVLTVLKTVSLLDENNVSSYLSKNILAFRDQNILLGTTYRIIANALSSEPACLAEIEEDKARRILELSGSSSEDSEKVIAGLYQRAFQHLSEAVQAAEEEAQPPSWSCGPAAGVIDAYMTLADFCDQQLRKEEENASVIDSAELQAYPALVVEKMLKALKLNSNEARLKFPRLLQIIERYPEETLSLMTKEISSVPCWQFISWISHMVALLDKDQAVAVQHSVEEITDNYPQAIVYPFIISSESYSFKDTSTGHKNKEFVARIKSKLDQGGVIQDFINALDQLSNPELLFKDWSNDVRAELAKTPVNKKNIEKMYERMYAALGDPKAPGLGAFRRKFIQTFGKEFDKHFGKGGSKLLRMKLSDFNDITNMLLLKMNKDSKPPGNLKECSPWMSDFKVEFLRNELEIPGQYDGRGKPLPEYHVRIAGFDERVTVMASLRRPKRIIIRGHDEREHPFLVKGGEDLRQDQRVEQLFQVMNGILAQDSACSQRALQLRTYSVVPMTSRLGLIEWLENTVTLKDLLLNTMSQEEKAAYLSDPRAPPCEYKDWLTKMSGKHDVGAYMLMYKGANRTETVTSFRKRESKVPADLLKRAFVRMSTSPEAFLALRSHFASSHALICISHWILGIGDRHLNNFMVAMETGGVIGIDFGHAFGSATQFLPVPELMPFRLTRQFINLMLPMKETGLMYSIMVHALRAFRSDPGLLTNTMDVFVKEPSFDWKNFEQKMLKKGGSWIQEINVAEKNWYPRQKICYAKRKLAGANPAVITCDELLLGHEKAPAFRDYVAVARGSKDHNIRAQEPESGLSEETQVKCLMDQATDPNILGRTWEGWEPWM
testName: DNA-PK Enzyme-Linked Immunosorbent Assay

# compound, IC50 / pM
records = [
    ("CC(C)NCCOC1=NCC(C2=CC3C4=C(C=NC3CC2F)N(C)C(=O)C42CCC2)C=C1NS(=O)(=O)C(C)C (configuration not stated)", 790),
    ("CCS(=O)(=O)NC1=CC(C2=CC3C4=C(C=NC3CC2F)N(C)C(=O)C42CCC2)CN=C1OCCNC(C)C (configuration not stated)", 630),
]

====

measurementTarget: Phosphatidylinositol 4,5-bisphosphate 3-kinase catalytic subunit delta isoform (Homo sapiens)
Sequence (O00329 whole entry, canonical isoform): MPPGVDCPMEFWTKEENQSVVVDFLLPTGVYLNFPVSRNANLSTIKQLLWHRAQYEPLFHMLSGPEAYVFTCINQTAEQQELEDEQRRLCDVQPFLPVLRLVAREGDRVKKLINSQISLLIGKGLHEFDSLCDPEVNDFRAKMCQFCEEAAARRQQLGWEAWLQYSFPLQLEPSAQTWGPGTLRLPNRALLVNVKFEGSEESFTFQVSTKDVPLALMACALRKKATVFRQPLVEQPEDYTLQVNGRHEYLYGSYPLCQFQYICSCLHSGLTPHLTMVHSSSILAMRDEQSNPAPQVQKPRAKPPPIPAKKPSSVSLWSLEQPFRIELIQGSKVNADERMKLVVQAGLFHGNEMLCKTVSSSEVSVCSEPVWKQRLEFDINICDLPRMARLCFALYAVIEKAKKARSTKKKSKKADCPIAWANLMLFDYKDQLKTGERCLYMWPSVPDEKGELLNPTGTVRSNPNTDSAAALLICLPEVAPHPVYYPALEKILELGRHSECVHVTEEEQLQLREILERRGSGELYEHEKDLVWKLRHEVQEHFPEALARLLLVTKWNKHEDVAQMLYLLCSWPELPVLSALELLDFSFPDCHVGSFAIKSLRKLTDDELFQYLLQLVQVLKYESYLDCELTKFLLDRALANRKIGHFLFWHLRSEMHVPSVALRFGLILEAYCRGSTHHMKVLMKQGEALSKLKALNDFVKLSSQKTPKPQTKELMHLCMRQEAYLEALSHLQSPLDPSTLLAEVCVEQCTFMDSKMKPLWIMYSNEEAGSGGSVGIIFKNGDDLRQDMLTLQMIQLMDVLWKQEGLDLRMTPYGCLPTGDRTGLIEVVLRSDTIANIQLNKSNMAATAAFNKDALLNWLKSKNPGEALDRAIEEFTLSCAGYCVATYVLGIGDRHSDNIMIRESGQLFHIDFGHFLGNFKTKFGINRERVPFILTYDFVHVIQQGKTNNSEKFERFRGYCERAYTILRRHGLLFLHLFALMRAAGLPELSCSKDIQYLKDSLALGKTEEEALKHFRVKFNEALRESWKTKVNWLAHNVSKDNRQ
testName: PI3Kα and PI3Kδ Biochemical Assay
pIC50: −log10 of the molar value.
Below: a set of entries, each annotated with reported pIC50.

# compound, pIC50
data = [
    ("CCS(=O)(=O)NC1=CC(C2=CC3C4=C(C=NC3CC2F)N(C)C(=O)C42CCC2)CN=C1OCCNC(C)C (configuration not stated)", 7.26),
    ("CC(C)NCCOC1=NCC(C2=CC3C4=C(C=NC3CC2F)N(C)C(=O)C42CCC2)C=C1NS(=O)(=O)C(C)C (configuration not stated)", 7.27),
]

Each recorded value in this set is attributed to BindingDB's records for patent US20250268873.
